Biological target: mu opiate receptor (MOR) (Rattus norvegicus, UniProt P33535)
Construct: from tissue; host or cells: rat striatal membrane preparation
Sequence (P33535 whole entry): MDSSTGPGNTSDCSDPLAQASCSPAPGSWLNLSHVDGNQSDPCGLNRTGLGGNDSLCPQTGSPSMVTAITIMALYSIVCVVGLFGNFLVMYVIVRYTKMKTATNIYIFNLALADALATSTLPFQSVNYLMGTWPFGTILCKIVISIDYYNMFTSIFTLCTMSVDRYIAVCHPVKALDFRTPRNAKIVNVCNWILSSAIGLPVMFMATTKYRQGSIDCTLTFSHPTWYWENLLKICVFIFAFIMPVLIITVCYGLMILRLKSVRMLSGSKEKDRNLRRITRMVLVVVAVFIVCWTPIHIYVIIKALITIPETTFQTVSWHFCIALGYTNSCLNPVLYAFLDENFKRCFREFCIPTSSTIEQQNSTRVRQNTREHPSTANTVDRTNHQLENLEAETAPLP
Test: MOR agonist activity using [35S]GTPγS binding assay in striatal membranes
Format: biochemical
Conditions: 1 μM compound, striatal membranes
So basically, if MOR agonist activity, [35S]GTPγS binding to Gαo, FLNA-binding compound as agonist 1 μM comes in under 200% it's true (1), and if it's 200% or more it's false (0).

molecule	system-tested	classification
COc1ccc(NC(=O)N2CCC3(CC2)OCCN3C(=O)Nc2ccc(OC)cc2)cc1 [Compound C0151M]	mu opiate receptor (MOR) (Rattus norvegicus, UniProt P33535)	false (0)
COc1cc(S(=O)(=O)N2CCC3(CC2)OCCN3S(=O)(=O)c2cc(OC)c(OC)c(OC)c2)cc(OC)c1OC	mu opiate receptor (MOR) (Rattus norvegicus, UniProt P33535)	false (0)
CC(=O)c1ccc(S(=O)(=O)N2CCC3(CC2)OC(CN(C)C)CN3S(=O)(=O)c2ccc(C(C)=O)cc2)cc1 (centres unmarked)	mu opiate receptor (MOR) (Rattus norvegicus, UniProt P33535)	false (0)
CCCCc1ccc(S(=O)(=O)N2CCC3(CC2)OCCN3S(=O)(=O)c2ccc(CCCC)cc2)cc1	mu opiate receptor (MOR) (Rattus norvegicus, UniProt P33535)	false (0)
O=S(=O)(c1cccc2cccnc12)N1CCC2(CC1)OCCN2S(=O)(=O)c1cccc2cccnc12 [Compound C0143M]	mu opiate receptor (MOR) (Rattus norvegicus, UniProt P33535)	true (1)
COC(=O)c1ccc(S(=O)(=O)N2CCC3(CC2)OCCN3S(=O)(=O)c2ccc(C(=O)OC)cc2)cc1	mu opiate receptor (MOR) (Rattus norvegicus, UniProt P33535)	true (1)
O=S(=O)(c1ccc(Cl)cc1)N1CCC2(CC1)OCCN2S(=O)(=O)c1ccc(Cl)cc1	mu opiate receptor (MOR) (Rattus norvegicus, UniProt P33535)	true (1)
O=C1CN(Cc2ccccc2)C2(CCN(S(=O)(=O)c3cc(Cl)cc(Cl)c3O)CC2)N1 [Compound C0138M]	mu opiate receptor (MOR) (Rattus norvegicus, UniProt P33535)	true (1)
O=C(c1ccc([N+](=O)[O-])cc1)N1CCC2(CC1)OCCN2S(=O)(=O)c1ccc([N+](=O)[O-])cc1	mu opiate receptor (MOR) (Rattus norvegicus, UniProt P33535)	true (1)
CC(=O)c1ccc(S(=O)(=O)N2CCC3(CC2)NC(=O)C(Cc2cnc[nH]2)N3S(=O)(=O)c2ccc(C(C)=O)cc2)cc1 (centres unmarked) [Compound C0084M]	mu opiate receptor (MOR) (Rattus norvegicus, UniProt P33535)	false (0)
COc1ccc(S(=O)(=O)N2CCOC23CCN(S(=O)(=O)c2ccc(C(C)=O)cc2)CC3)cc1	mu opiate receptor (MOR) (Rattus norvegicus, UniProt P33535)	false (0)
CC(=O)c1ccc(S(=O)(=O)N2CCC3(CC2)OCCN3S(=O)(=O)c2ccc(C(C)=O)cc2)cc1	mu opiate receptor (MOR) (Rattus norvegicus, UniProt P33535)	false (0)
O=S(=O)(c1ccc(Br)cc1C(F)(F)F)N1CCC2(CC1)OCCN2S(=O)(=O)c1ccc(Br)cc1C(F)(F)F	mu opiate receptor (MOR) (Rattus norvegicus, UniProt P33535)	false (0)
CS(=O)(=O)c1ccc(S(=O)(=O)N2CCC3(CC2)OCCN3S(=O)(=O)c2ccc(S(C)(=O)=O)cc2)cc1	mu opiate receptor (MOR) (Rattus norvegicus, UniProt P33535)	false (0)
O=S(=O)(c1ccccc1)N1CCC2(CC1)OCCN2S(=O)(=O)c1ccccc1	mu opiate receptor (MOR) (Rattus norvegicus, UniProt P33535)	false (0)
COc1ccc(C(=O)N2CCC3(CC2)OCCN3S(=O)(=O)c2ccc(OC)cc2)cc1	mu opiate receptor (MOR) (Rattus norvegicus, UniProt P33535)	false (0)
NS(=O)(=O)c1ccc(S(=O)(=O)N2CCC3(CC2)OCCN3S(=O)(=O)c2ccc(S(N)(=O)=O)cc2)cc1	mu opiate receptor (MOR) (Rattus norvegicus, UniProt P33535)	true (1)
COc1ccc(C(=O)N2CCOC23CCN(S(=O)(=O)c2ccc(OC)cc2)CC3)cc1	mu opiate receptor (MOR) (Rattus norvegicus, UniProt P33535)	true (1)
O=S(=O)(c1csc2ccccc12)N1CCC2(CC1)OCCN2S(=O)(=O)c1csc2ccccc12 [Compound C0150M]	mu opiate receptor (MOR) (Rattus norvegicus, UniProt P33535)	false (0)
O=S(=O)(c1cccc(OC(F)(F)F)c1)N1CCC2(CC1)OCCN2S(=O)(=O)c1cccc(OC(F)(F)F)c1	mu opiate receptor (MOR) (Rattus norvegicus, UniProt P33535)	false (0)
Cc1ccc(S(=O)(=O)N2CCC3(CC2)OCCN3S(=O)(=O)c2ccc(C)cc2)cc1	mu opiate receptor (MOR) (Rattus norvegicus, UniProt P33535)	true (1)
N#Cc1ccccc1S(=O)(=O)N1CCC2(CC1)OCCN2S(=O)(=O)c1ccccc1C#N	mu opiate receptor (MOR) (Rattus norvegicus, UniProt P33535)	false (0)
O=S(=O)(c1ccc(F)cc1)N1CCC2(CC1)OCCN2S(=O)(=O)c1ccc(F)cc1	mu opiate receptor (MOR) (Rattus norvegicus, UniProt P33535)	false (0)
CC(=O)c1ccc(C(=O)N2CCC3(CC2)OCCN3S(=O)(=O)c2ccc(C(C)=O)cc2)cc1	mu opiate receptor (MOR) (Rattus norvegicus, UniProt P33535)	true (1)
O=S(=O)(c1ccc(Br)c(C(F)(F)F)c1)N1CCC2(CC1)OCCN2S(=O)(=O)c1ccc(Br)c(C(F)(F)F)c1	mu opiate receptor (MOR) (Rattus norvegicus, UniProt P33535)	false (0)
COc1ccc(S(=O)(=O)N2CCC3(CC2)OCCN3S(=O)(=O)c2ccc(OC)cc2)cc1	mu opiate receptor (MOR) (Rattus norvegicus, UniProt P33535)	false (0)

Numbers sourced from patent US8580809B2.
